Test system: gephE
experiment: µSPOT peptide microarray binding assay with recombinant gephE
setupConditions: µSPOT peptide microarray, GlyRβ full positional scan, recombinant gephE; intensity normalised to wild-type sequence DLRSNDFSIVGSLPR (=1)
metricName: gephE Binding Intensity [norm.] (norm.)

[P] DLRSNTFSIVGSLPR [GlyRβ_Full_Positional_Scan_116]
[Q] DLRSNDFSIDGSLPR [GlyRβ_Full_Positional_Scan_190, GlyR β 414-428 variant V423D]
Of P and Q , whose reported gephE Binding Intensity [norm.] is numerically smaller? // caller expects the label of the chosen entry
Q
(Q: 0.46 norm., P: 0.85 norm.)

[P] DLRSNDFSIQGSLPR [GlyRβ_Full_Positional_Scan_200, GlyR β 414-428 variant V423Q]
[Q] DVRSNDFSIVGSLPR [GlyRβ_Full_Positional_Scan_026]
Which value of gephE Binding Intensity [norm.] is greater, the one for P or the one for Q ? Give the label under which the chosen entry appears.
Q

[P] DLASNDFSIVGSLPR [GlyRβ_Full_Positional_Scan_041]
[Q] DLRSNDFSRVGSLPR [GlyRβ_Full_Positional_Scan_172, GlyR β 414-428 variant I422R]
Param metric = gephE Binding Intensity [norm.]; output whichever of P , Q has the minimum value. Lab note: record the label of whichever item you select.
Q
(Q: 0.57 norm., P: 0.95 norm.)

[a] MLRSNDFSIVGSLPR [GlyRβ_Full_Positional_Scan_018]
[b] DLRSNDFWIVGSLPR [GlyRβ_Full_Positional_Scan_148, GlyR β 414-428 variant S421W]
// pick min by gephE Binding Intensity [norm.]: a , b Refer to your chosen entry by its label in the reply.
b

[a] DPRSNDFSIVGSLPR [GlyRβ_Full_Positional_Scan_025]
[b] DLRSNDESIVGSLPR [GlyRβ_Full_Positional_Scan_131, GlyR β 414-428 variant F420E]
Given the listed records, identify the one among a and b with higher gephE Binding Intensity [norm.]. Use the label to indicate which entry you chose.
a
(a: 1.01 norm., b: 0.42 norm.)

[1] DLRSLDFSIVGSLPR [GlyRβ_Full_Positional_Scan_084]
[2] DLRSNDPSIVGSLPR [GlyRβ_Full_Positional_Scan_125, GlyR β 414-428 variant F420P]
Lowest gephE Binding Intensity [norm.]? choose 1 or 2 To answer, give the label that identifies your chosen option.
2

[1] DLRSNDFMIVGSLPR [GlyRβ_Full_Positional_Scan_158, GlyR β 414-428 variant S421M]
[2] PLRSNDFSIVGSLPR [GlyRβ_Full_Positional_Scan_005]
Pick one: 1 or 2 . Which has the bigger gephE Binding Intensity [norm.] number? Returns: label corresponding to the selected item.
2

[I] DLNSNDFSIVGSLPR [GlyRβ_Full_Positional_Scan_059]
[II] DLRSNDFFIVGSLPR [GlyRβ_Full_Positional_Scan_147, GlyR β 414-428 variant S421F]
Lab note: check whether I or II shows the higher recorded gephE Binding Intensity [norm.]. Lab log: write the label of the selected item as the result.
I
